Observed IC50 values for Ribosomal protein S6 kinase alpha-3 (Homo sapiens, UniProt P51812) are listed in what follows.
Please reply with the bare figure in µM and do not write the unit itself.

Solved entries:
CCCc1cn2c(/C=N/NC(=N)N)c(-c3ccc(Cl)c([N+](=O)[O-])c3)nc2s1: 6.43
N#Cc1ccc(-c2nc3sc(Cl)cn3c2/C=N/NC(=N)N)cc1: 8.55
N=C(N)N/N=C/c1c(-c2ccc(Cl)c([N+](=O)[O-])c2)nc2sc3ccccc3n12: 7.32
N=C(N)N/N=C/c1c(-c2cc(Cl)sc2Cl)nc2sc3ccccc3n12: 12

Value (IC50, Ribosomal protein S6 kinase alpha-3 (Homo sapiens, UniProt P51812)) for record COc1cc([N+](=O)[O-])c(OC)cc1-c1nc2ccccn2c1/C=N/NC(=N)N = 7.8

IC50 for Ribosomal protein S6 kinase alpha-3 (Homo sapiens, UniProt P51812) with input Cc1csc2nc(-c3ccc(Cl)c([N+](=O)[O-])c3)c(/C=N/NC(=N)N)n12 equals 44.8
